# target: Fibroblast growth factor receptor 4 (Homo sapiens)
# Sequence (P22455 whole entry): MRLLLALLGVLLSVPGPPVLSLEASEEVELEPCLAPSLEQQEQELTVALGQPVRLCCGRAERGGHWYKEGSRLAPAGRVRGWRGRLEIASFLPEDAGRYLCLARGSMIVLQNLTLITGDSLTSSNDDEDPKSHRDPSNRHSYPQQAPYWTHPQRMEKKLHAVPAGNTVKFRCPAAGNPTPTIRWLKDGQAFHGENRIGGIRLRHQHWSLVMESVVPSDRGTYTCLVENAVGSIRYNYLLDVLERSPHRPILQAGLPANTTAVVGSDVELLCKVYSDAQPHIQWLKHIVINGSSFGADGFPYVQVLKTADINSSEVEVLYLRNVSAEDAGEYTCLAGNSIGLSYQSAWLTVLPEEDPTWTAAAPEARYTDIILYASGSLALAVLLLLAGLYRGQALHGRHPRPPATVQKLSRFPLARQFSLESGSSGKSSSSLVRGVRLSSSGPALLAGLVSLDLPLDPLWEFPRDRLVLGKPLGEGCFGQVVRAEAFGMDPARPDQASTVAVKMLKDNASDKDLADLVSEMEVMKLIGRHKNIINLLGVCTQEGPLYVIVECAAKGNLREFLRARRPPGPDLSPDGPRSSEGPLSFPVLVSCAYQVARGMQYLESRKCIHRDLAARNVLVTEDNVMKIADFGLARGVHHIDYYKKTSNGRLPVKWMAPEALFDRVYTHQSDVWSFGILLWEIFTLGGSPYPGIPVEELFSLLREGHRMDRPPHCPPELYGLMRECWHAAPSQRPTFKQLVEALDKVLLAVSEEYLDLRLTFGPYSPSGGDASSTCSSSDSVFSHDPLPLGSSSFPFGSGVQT
# assay.protocol: Omnia Assay
# condition.description: pH 7.5
IC50 reference

- compound: "C=CC(=O)NC1COCC1Nc1ncc2c(n1)N(Cc1c[nH]cn1)C(=O)N(c1c(Cl)c(OC)cc(OC)c1Cl)C2 (configuration not stated)"
  IC50: "< 100 nM"

Then this compound:
Lookup: Form: Entry = C=CC(=O)Nc1cc(N2CCC(C(=O)OC(C)(C)C)CC2)ccc1Nc1ncc2c(n1)N(C)C(=O)N(c1c(Cl)c(OC)cc(OC)c1Cl)C2 | System = Fibroblast growth factor receptor 4 (Homo sapiens) | IC50 = ____
Found: < 100 nM

====

IC50 reference
# target: Fibroblast growth factor receptor 4 (Homo sapiens)
# assay.protocol: Omnia Assay
# condition.description: pH 7.5

- compound: "C=CC(=O)Nc1ccc(Nc2ncc3c(n2)N(Cc2cccc(NC(=O)CC)c2)C(=O)C(c2c(Cl)c(OC)cc(OC)c2Cl)C3)cc1 (configuration not stated)"
  measured.quantity: "IC50"
  reported.value: "< 100 nM"

Then this compound:
Lookup: For the compound C=CC(=O)Nc1cccc(Nc2ncc3c(n2)N(Cc2cccc(NC(=O)CC)c2)C(=O)C(c2c(Cl)c(OC)cc(OC)c2Cl)C3)c1 (configuration not stated) , what IC50 is on record?
Found: < 100 nM
